Data origin: patent US20030064936A1

- Tested on: recombinant ceramidase from Pseudomonas aeruginosa PA01 (Pseudomonas aeruginosa)
- Sequence (Q9I596 25-670): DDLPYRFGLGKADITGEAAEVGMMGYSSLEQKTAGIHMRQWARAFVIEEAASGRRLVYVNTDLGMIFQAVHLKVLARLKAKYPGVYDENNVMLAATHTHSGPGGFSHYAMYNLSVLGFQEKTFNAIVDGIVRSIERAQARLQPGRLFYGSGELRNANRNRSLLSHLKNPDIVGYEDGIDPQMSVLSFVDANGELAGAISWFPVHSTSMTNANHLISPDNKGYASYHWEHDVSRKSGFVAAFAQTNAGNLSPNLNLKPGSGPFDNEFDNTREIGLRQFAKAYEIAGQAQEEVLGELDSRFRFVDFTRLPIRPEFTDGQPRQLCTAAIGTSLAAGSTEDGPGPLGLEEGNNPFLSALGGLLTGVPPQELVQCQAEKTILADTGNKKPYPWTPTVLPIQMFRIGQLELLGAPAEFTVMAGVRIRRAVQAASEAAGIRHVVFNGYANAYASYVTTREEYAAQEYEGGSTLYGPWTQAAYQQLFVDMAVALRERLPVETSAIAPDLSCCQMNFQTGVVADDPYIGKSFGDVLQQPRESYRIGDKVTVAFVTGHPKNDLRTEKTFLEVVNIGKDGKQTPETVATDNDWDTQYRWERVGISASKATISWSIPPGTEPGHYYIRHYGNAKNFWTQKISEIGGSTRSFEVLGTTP
- Test method notes: Inhibition of recombinant Pseudomonas aeruginosa PA01 ceramidase, quenched fluorescent ceramide analog substrate
- Type: biochemical
- Condition description: 20 μM active compound; pH 8.5, 25° C., 4 mM CaCl2, Triton X-100; control rate = 100%
The compounds listed here are annotated with their % of inhibition.
Report as a plain number; the unit % is understood.

• CCCCCCCCCCCCCC[C@@H](O)[C@@H](O)[C@H](CO)NC(C)=O [N—acetyl—phytosphingosine] = 9
• CCCCCCCCCCCCCCCCC(O)C(=O)N[C@@H](CO)[C@H](O)[C@H](O)CCCCCCCCCCCCCC (some centres unmarked) [Ceramide VI] = 11

stdin: Recorded % of inhibition for CCCCCCCCCCCCCCC[C@H](O)[C@H](N)CO [D/L sphinganine] , please?
stdout: 83

stdin: Recorded % of inhibition for CCCCCCCCCCCCCC[C@@H](O)[C@@H](O)[C@@H](N)CO.Cl [Phytosphingosine.HCl] , please?
stdout: 67

stdin: Recorded % of inhibition for CCCCCCCCCCCCC/C=C/[C@@H](O)[C@@H](N)CO [D—erythro—sphingosine] , please?
stdout: 97

stdin: Recorded % of inhibition for CCCCCCCCCCCCC/C=C/[C@H](O)[C@H](N)CO [L—erythro—sphingosine] , please?
stdout: 20

stdin: Recorded % of inhibition for CCCCCCCCCCCCCCC(OC(C)=O)C(OC(C)=O)C(COC(C)=O)NC(C)=O (centres unmarked) [TAPS, tetraacetyl-phytosphingosine] , please?
stdout: 22

stdin: Recorded % of inhibition for CCCCCCCCCCCCCC[C@@H](O)[C@@H](O)[C@H](CO)NC(C)=O [MAPS, N-monoacetyl phytosphingosine] , please?
stdout: 35
